# target_system: CSF-1R (Homo sapiens)
# Construct: purchased Invitrogen PV3249 (lot 662393N)
# Sequence (P07333 20-972): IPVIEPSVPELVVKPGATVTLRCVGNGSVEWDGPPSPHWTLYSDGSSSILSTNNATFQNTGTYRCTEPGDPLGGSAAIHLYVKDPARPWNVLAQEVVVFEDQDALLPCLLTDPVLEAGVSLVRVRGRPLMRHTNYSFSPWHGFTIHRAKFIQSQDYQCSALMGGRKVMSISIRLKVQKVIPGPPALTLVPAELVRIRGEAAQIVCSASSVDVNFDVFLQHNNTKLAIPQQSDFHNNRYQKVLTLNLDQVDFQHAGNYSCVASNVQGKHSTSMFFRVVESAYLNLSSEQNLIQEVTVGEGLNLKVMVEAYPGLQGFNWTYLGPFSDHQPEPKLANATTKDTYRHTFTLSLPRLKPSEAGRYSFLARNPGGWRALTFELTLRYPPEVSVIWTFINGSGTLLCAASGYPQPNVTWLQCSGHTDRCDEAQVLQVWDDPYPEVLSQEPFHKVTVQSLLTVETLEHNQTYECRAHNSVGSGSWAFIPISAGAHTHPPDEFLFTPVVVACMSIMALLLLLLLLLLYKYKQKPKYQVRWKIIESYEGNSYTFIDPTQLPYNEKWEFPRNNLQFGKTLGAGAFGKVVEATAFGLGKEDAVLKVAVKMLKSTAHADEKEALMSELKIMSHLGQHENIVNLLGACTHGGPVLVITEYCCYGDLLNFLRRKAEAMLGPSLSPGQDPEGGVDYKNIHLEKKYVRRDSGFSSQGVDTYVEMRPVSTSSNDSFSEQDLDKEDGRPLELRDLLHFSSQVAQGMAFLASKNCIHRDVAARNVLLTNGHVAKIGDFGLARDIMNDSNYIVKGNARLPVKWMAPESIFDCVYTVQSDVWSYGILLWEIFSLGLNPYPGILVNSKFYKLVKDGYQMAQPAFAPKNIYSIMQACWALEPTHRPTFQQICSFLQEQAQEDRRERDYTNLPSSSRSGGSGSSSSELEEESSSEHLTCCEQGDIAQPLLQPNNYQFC
# assay_text: HTRF biochemical assay, CSF-1R
# assay_context: Table 4
quantity_name: IC50

INSERT INTO results (compound, quantity_name, test_result) VALUES
  ('Cc1ccc(-c2noc([C@H]3C[C@@H]3F)n2)cc1NC(=O)c1cnc2ccc(OC(C)C)cn12 [Compound I-86]', 'IC50', '≤ 50 nM'),
  ('CCOc1ccn2c(C(=O)Nc3cc(-c4noc([C@H]5C[C@@H]5F)n4)ccc3C)cnc2c1 [Compound I-93]', 'IC50', '≤ 50 nM');

Would you mind telling me what IC50 value was observed for COC(=O)N1CC(c2nc(-c3ccc(C(F)F)c(NC(=O)c4cnc5ccccn45)c3)no2)C1 [Compound I-225] ?
500 to 5000 nM

Would you mind telling me what IC50 value was observed for Cc1cc(C)c(-c2noc(C3CC3(F)F)n2)cc1NC(=O)c1cnc2ccccn12 (racemic) [Compound I-129] ?
≤ 50 nM

Would you mind telling me what IC50 value was observed for Cc1ccc(-c2noc([C@H]3C[C@@H]3F)n2)cc1NC(=O)c1cnc2ccc(C3CNC3)cn12 [Compound I-106] ?
≤ 50 nM

Value source: patent US20240254119A1
